Molecular target: T1, Cre recombinase monomer with Q311R mutation
T1 chain: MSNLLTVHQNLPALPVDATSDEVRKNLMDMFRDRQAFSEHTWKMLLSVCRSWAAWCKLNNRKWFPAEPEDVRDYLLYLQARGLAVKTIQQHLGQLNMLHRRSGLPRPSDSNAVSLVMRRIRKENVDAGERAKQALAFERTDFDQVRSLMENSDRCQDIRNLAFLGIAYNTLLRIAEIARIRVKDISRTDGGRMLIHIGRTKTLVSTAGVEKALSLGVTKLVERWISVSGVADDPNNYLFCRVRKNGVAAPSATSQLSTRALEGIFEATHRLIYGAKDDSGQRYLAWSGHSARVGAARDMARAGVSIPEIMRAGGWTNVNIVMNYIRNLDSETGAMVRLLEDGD
Observable: Median dimer activity (recombination on loxP)
Show the value, then the unit it is measured in.

Here are 2 proteins together with their reported answers.
# Median dimer activity (recombination on loxP) lookup, item Cre recombinase monomer with K201G mutation (protein) MSNLLTVHQNLPALPVDATSDEVRKNLMDMFRDRQAFSEHTWKMLLSVCRSWAAWCKLNNRKWFPAEPEDVRDYLLYLQARGLAVKTIQQHLGQLNMLHRRSGLPRPSDSNAVSLVMRRIRKENVDAGERAKQALAFERTDFDQVRSLMENSDRCQDIRNLAFLGIAYNTLLRIAEIARIRVKDISRTDGGRMLIHIGRTGTLVSTAGVEKALSLGVTKLVERWISVSGVADDPNNYLFCRVRKNGVAAPSATSQLSTRALEGIFEATHRLIYGAKDDSGQRYLAWSGHSARVGAARDMARAGVSIPEIMQAGGWTNVNIVMNYIRNLDSETGAMVRLLEDGD 90%

Next up: Cre recombinase monomer with R173Y mutation (protein) MSNLLTVHQNLPALPVDATSDEVRKNLMDMFRDRQAFSEHTWKMLLSVCRSWAAWCKLNNRKWFPAEPEDVRDYLLYLQARGLAVKTIQQHLGQLNMLHRRSGLPRPSDSNAVSLVMRRIRKENVDAGERAKQALAFERTDFDQVRSLMENSDRCQDIRNLAFLGIAYNTLLYIAEIARIRVKDISRTDGGRMLIHIGRTKTLVSTAGVEKALSLGVTKLVERWISVSGVADDPNNYLFCRVRKNGVAAPSATSQLSTRALEGIFEATHRLIYGAKDDSGQRYLAWSGHSARVGAARDMARAGVSIPEIMQAGGWTNVNIVMNYIRNLDSETGAMVRLLEDGD 92%

***
# Median dimer activity (recombination on loxP) lookup, item Cre recombinase monomer with E176H mutation (protein) MSNLLTVHQNLPALPVDATSDEVRKNLMDMFRDRQAFSEHTWKMLLSVCRSWAAWCKLNNRKWFPAEPEDVRDYLLYLQARGLAVKTIQQHLGQLNMLHRRSGLPRPSDSNAVSLVMRRIRKENVDAGERAKQALAFERTDFDQVRSLMENSDRCQDIRNLAFLGIAYNTLLRIAHIARIRVKDISRTDGGRMLIHIGRTKTLVSTAGVEKALSLGVTKLVERWISVSGVADDPNNYLFCRVRKNGVAAPSATSQLSTRALEGIFEATHRLIYGAKDDSGQRYLAWSGHSARVGAARDMARAGVSIPEIMQAGGWTNVNIVMNYIRNLDSETGAMVRLLEDGD 51%

Next up: Cre recombinase monomer with R292G mutation (protein) MSNLLTVHQNLPALPVDATSDEVRKNLMDMFRDRQAFSEHTWKMLLSVCRSWAAWCKLNNRKWFPAEPEDVRDYLLYLQARGLAVKTIQQHLGQLNMLHRRSGLPRPSDSNAVSLVMRRIRKENVDAGERAKQALAFERTDFDQVRSLMENSDRCQDIRNLAFLGIAYNTLLRIAEIARIRVKDISRTDGGRMLIHIGRTKTLVSTAGVEKALSLGVTKLVERWISVSGVADDPNNYLFCRVRKNGVAAPSATSQLSTRALEGIFEATHRLIYGAKDDSGQRYLAWSGHSAGVGAARDMARAGVSIPEIMQAGGWTNVNIVMNYIRNLDSETGAMVRLLEDGD 97%
